Where do the numbers come from? From patent EP4725969A1.

STUDY_TARGET: T1, human HER2 expressed on tumor cells (human, UniProt P04626 23-1255)
T1 construct: whole, on cells; Cell line is named in each row's assay
EXPERIMENTAL_PROTOCOL: flow cytometry, BT474 cells
Consider the cut-off 0.1 µg/mL. If the recorded EC50 is strictly smaller, the label is true (1); if not, the label is false (0).

{"BINDER": "Hu2117-HK304 (Fc fusion, scFv-hIgG1 Fc; not shown: human IgG1 Fc) scFv: EVQLVESGGGLVQPGGSLRLSCAASGFTYSSYGMSWVRQAPGKGLEWVASISGGGNYAKYVPSVKGRFTISRDNSKNTLYLQMNSLRAEDTAVYYCARDYVGFFDVWGQGTLVTVSSGGGGSGGGGSGGGGSDIQMTQSPSSLSASVGDRVTITCRSSQSLVHSNRNTYLHWYQQKPGKAPKLLIYKVSNRFSGVPSRFSGSGSGTDFTLTISSLQPEDFATYFCSQSTHVPYTFGQGTKVEIK", "GROUP": "true (1)"}
{"BINDER": "Hu2117HK (Fc fusion, Hu2117-H1 + Hu2117-K1; also called hu2117-H1K1; humanized single-chain antibody Hu2117HK; not shown: human IgG1 Fc) scFv: EVQLVESGGGLVQPGGSLRLSCAASGFTYSSYGMSWVRQAPGKGLEWVASISGGGSYTKYPDSVKGRFTISRDNSKNTLYLQMNSLRAEDTAVYYCARDYAGFFDVWGQGTLVTVSSGGGGSGGGGSGGGGSDIQMTQSPSSLSASVGDRVTITCRSSQSLVHSNGNTYLHWYQQKPGKAPKLLIYKVSNRFSGVPSRFSGSGSGTDFTLTISSLQPEDFATYFCSQSTHVPYTFGQGTKVEIK", "GROUP": "false (0)"}
